mass density listing for selected molecules.
assay: xn = mol fraction of the nth substance listed; conditions: 298.15 K; 200 kPa; Liquid; x1 = 0.6994
Give the value in kg/m3 but do not write kg/m3 after it.

molecule="BrCBr [dibromomethane] + CCOC(C)=O" test_readout="mass density" value=1874.05
molecule="ClCCCl [1,2-dichloroethane] + CCOC(C)=O" test_readout="mass density" value=1120.18
molecule="ClCCBr [1-bromo-2-chloroethane] + CCOC(C)=O" test_readout="mass density" value=1442.43

Let us examine a further case.
QUERY: Returns the measured mass density for the input molecule. Input: ClCBr [bromochloromethane] + CCOC(C)=O
RESULT: 1514.36
